# credit: paper PMC7998974

Test: Erythrocyte lysis test (in vitro toxicity)
Format: cell-based
Details: rabbit erythrocytes (0.2% RBC suspension), pH 7.4, dose of 10 mg/L, 37 °C, read-out: hemolytic ability to erythrocytes (percent hemolysis)
quantity measured: hemolysis at 1 h, 10 mg/L (%)

1. O=C(NNC(=S)Nc1ccc(Cl)cc1)c1ccncc1 100
